pEC50 overview
# target of assay: T1, full length human SIRPα v1 stably expressed on CHOK1 or 293F cells (human, UniProt P78324 31-504)
# T1 construct: whole, on cells; also called CHOK1-human SIRPα v1; CHOK1-hSIRPα v1
# T1 sequence (P78324 31-504): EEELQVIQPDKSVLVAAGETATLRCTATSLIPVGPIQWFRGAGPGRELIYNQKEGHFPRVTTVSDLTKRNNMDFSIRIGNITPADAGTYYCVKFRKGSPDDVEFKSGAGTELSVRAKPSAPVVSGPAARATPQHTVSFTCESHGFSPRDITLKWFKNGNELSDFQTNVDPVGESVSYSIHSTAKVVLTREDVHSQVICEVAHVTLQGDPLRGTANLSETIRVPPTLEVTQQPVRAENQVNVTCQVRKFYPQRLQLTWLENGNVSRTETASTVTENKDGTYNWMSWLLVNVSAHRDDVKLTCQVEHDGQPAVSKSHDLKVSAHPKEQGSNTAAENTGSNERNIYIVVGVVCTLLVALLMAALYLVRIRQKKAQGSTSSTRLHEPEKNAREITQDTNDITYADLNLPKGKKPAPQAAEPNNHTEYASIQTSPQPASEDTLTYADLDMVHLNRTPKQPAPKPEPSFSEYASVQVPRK
# assay summary: FACS, CHOK1-human SIRPα v1 cells
Scale for pEC50: -log10 of concentration given in mol/L; no unit attached.

binder="015 (antibody, V domains shown, Mouse monoclonal hybridoma antibody; also called antibody 015; hybridoma antibody 015) VH: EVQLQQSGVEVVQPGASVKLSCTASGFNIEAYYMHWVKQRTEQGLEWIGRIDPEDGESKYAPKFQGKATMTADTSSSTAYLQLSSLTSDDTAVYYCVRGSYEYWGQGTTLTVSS VL: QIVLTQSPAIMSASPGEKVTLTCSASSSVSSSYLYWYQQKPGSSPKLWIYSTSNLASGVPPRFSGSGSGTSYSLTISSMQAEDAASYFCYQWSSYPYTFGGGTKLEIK" attribute_measured=pEC50 reported_measurement=9.00

Now for the binder whose pEC50 we want.
Complete the entry with pEC50 for 071 (antibody, V domains shown, Mouse monoclonal hybridoma antibody; also called antibody 071; hybridoma antibody 071) VH: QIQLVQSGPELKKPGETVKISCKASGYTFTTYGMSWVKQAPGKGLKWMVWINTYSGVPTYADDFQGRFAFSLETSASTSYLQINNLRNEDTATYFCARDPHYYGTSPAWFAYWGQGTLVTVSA VL: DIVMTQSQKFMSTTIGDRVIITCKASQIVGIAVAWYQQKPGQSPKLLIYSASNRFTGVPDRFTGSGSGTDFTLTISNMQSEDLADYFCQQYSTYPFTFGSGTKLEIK 9.70
